Source listed as patent US20210002231A1.

Please consider the recorded pIC50 for NPFF2R (Homo sapiens) in what follows.
pIC50: −log10 of the molar value. Starred links: 1 amine or outer side, 2 acyl side, 3 side chain; linkers in the order of their positions; H or OH if unused. Non-standard residues stand in square brackets, D forms with d. Residues, ends and D or L forms follow the SMILES beside them. Nva(5-(4-Bn-piperidin-1-yl)) = N[C@@H](CCCN1CCC(Cc2ccccc2)CC1)C(=O)O; X5 = O=C1[C@@H](N[*:1])Cc2ccccc2CN1CCCC(=O)[*:2]; X1 = O=C1[C@@H](N[*:1])Cc2ccccc2CN1CCC(=O)[*:2]; Dmt = Cc1cc(O)cc(C)c1C[C@H](N)C(=O)O; NMeβAla = CN(CCC(=O)[*:2])[*:1]

- Compound: "CC[C@H](C)[C@H](NC(=O)[C@H](CCCN1CCC(Cc2ccccc2)CC1)NC(=O)CCN1Cc2ccccc2C[C@H](NC(=O)[C@@H](CCCNC(=N)N)NC(=O)[C@@H](N)Cc2c(C)cc(O)cc2C)C1=O)C(N)=O [DP0002, H-Dmt-D-Arg-Aba-β-Ala-Bpa-Ile-NH2] (H-[Dmt][dR][X1][Nva(5-(4-Bn-piperidin-1-yl))]I-NH2)"
  System tested: "NPFF2R (Homo sapiens)"
  pIC50: "> 7.30"
- Compound: "Cc1cc(O)cc(C)c1C[C@H](N)C(=O)N(C)[C@H](C)C(=O)N[C@H]1Cc2c(ccc3ccccc23)CN(CC(=O)N[C@@H](CCCN2CCC(Cc3ccccc3)CC2)C(=O)N[C@@H](Cc2ccccc2)C(N)=O)C1=O [DP0014, H-Dmt-N(Me)-D-Ala-1AnaGly-Bpa-Phe-NH2]"
  System tested: "NPFF2R (Homo sapiens)"
  pIC50: "~7.40"
- Compound: "Cc1cc(O)cc(C)c1C[C@H](N)C(=O)N[C@H](CCCNC(=N)N)C(=O)N[C@H]1Cc2ccccc2CN(CCCC(=O)N[C@@H](CCCN2CCC(Cc3ccccc3)CC2)C(=O)N[C@@H](Cc2c[nH]c3ccccc23)C(N)=O)C1=O [DP0022, H-Dmt-D-Arg-AbaGABA-Bpa-Trp-NH2] (H-[Dmt][dR][X5][Nva(5-(4-Bn-piperidin-1-yl))]W-NH2)"
  System tested: "NPFF2R (Homo sapiens)"
  pIC50: "> 7.40"
- Compound: "Cc1cc(O)cc(C)c1C[C@H](N)C(=O)N[C@H](CCCNC(=N)N)C(=O)N[C@@H](Cc1ccccc1)C(=O)NCCC(=O)N[C@@H](CCCN1CCC(Cc2ccccc2)CC1)C(=O)N[C@@H](Cc1ccccc1)C(N)=O [DP0019, H-Dmt-D-Arg-Phe-β-Ala-Bpa-Phe-NH2] (HELM PEPTIDE1{[Cc1cc(O)cc(C)c1C[C@H](N)C(=O)[*:2]].[dR].F.[bAla].[O=C([C@H](CCCN1CCC(Cc2ccccc2)CC1)N[*:1])[*:2]].F.[am]}$$$$V2.0)"
  System tested: "NPFF2R (Homo sapiens)"
  pIC50: "6.40 to 7.40"
- Compound: "Cc1cc(O)cc(C)c1C[C@H](N)C(=O)N[C@H](CCCNC(=N)N)C(=O)N[C@H]1Cc2ccccc2CN(CCC(=O)N[C@@H](CCCN2CCC(Cc3ccccc3)CC2)C(=O)N[C@@H](CC(C)C)C(N)=O)C1=O [DP0003, H-Dmt-D-Arg-Aba-β-Ala-Bpa-Leu-NH2] (H-[Dmt][dR][X1][Nva(5-(4-Bn-piperidin-1-yl))]L-NH2)"
  System tested: "NPFF2R (Homo sapiens)"
  pIC50: "> 7.30"
- Compound: "Cc1cc(O)cc(C)c1C[C@H](N)C(=O)N[C@H](CCCNC(=N)N)C(=O)N[C@@H](Cc1ccccc1)C(=O)N(C)CCC(=O)N[C@@H](CCCN1CCC(Cc2ccccc2)CC1)C(=O)N[C@@H](Cc1ccccc1)C(N)=O [DP0013, H-Dmt-D-Arg-Phe-N(Me)-β-Ala-Bpa-Phe-NH2] (H-[Dmt][dR]F[NMeβAla][Nva(5-(4-Bn-piperidin-1-yl))]F-NH2)"
  System tested: "NPFF2R (Homo sapiens)"
  pIC50: "~7.40"
- Compound: "Cc1cc(O)cc(C)c1C[C@H](N)C(=O)N[C@H](CCCNC(=N)N)C(=O)N[C@H]1Cc2ccccc2CN(CCC(=O)N[C@@H](CCCN2CCC(Cc3ccccc3)CC2)C(=O)N[C@H](C(N)=O)C(C)C)C1=O [DP0001, H-Dmt-D-Arg-Aba-β-Ala-Bpa-Val-NH2] (H-[Dmt][dR][X1][Nva(5-(4-Bn-piperidin-1-yl))]V-NH2)"
  System tested: "NPFF2R (Homo sapiens)"
  pIC50: "> 7.30"
- Compound: "Cc1cc(O)cc(C)c1C[C@H](N)C(=O)N[C@H](CCCNC(=N)N)C(=O)N[C@H]1Cc2c(ccc3ccccc23)CN(CC(=O)N[C@@H](CCCN2CCC(Cc3ccccc3)CC2)C(=O)N[C@H](C(N)=O)C(C)C)C1=O [DP0021, H-Dmt-D-Arg-1AnaGly-Bpa-Val-NH2]"
  System tested: "NPFF2R (Homo sapiens)"
  pIC50: "> 7.40"
- Compound: "Cc1cc(O)cc(C)c1C[C@H](N)C(=O)N[C@H](CCCNC(=N)N)C(=O)N[C@H]1Cc2ccccc2CN(CCCC(=O)N[C@@H](CCCN2CCC(Cc3ccccc3)CC2)C(=O)N[C@@H](Cc2ccccc2)C(N)=O)C1=O [DP0018, H-Dmt-D-Arg-AbaGABA-Bpa-Phe-NH2] (H-[Dmt][dR][X5][Nva(5-(4-Bn-piperidin-1-yl))]F-NH2)"
  System tested: "NPFF2R (Homo sapiens)"
  pIC50: "> 7.40"
- Compound: "Cc1cc(O)cc(C)c1C[C@H](N)C(=O)N[C@H](CCCNC(=N)N)C(=O)N[C@H]1Cc2ccccc2CN(CCC(=O)N[C@@H](CCCN2CCC(Cc3ccccc3)CC2)C(=O)N[C@@H](Cc2c[nH]c3ccccc23)C(N)=O)C1=O [DP0005, H-Dmt-D-Arg-Aba-β-Ala-Bpa-Trp-NH2] (H-[Dmt][dR][X1][Nva(5-(4-Bn-piperidin-1-yl))]W-NH2)"
  System tested: "NPFF2R (Homo sapiens)"
  pIC50: "> 7.30"
- Compound: "Cc1cc(O)cc(C)c1C[C@H](N)C(=O)N[C@H](CCCNC(=N)N)C(=O)N[C@H]1Cc2ccccc2CN(CCCC(=O)N[C@@H](CCCN2CCC(Cc3ccccc3)CC2)C(=O)N[C@H](C(N)=O)C(C)C)C1=O [DP0020, H-Dmt-D-Arg-AbaGABA-Bpa-Val-NH2] (H-[Dmt][dR][X5][Nva(5-(4-Bn-piperidin-1-yl))]V-NH2)"
  System tested: "NPFF2R (Homo sapiens)"
  pIC50: "6.40 to 7.40"
- Compound: "Cc1cc(O)cc(C)c1C[C@H](N)C(=O)N[C@H](CCCNC(=N)N)C(=O)N[C@H]1Cc2c(ccc3ccccc23)CN(CC(=O)N[C@@H](CCCN2CCC(Cc3ccccc3)CC2)C(=O)N[C@@H](Cc2ccccc2)C(N)=O)C1=O [DP0012, H-Dmt-D-Arg-1AnaGly-Bpa-Phe-NH2]"
  System tested: "NPFF2R (Homo sapiens)"
  pIC50: "> 7.40"
- Compound: "Cc1cc(O)cc(C)c1C[C@H](N)C(=O)N[C@H](CCCNC(=N)N)C(=O)N[C@H]1Cc2ccccc2CN(CCC(=O)N[C@@H](CCCN2CCC(Cc3ccccc3)CC2)C(=O)N[C@@H](Cc2ccc(O)cc2)C(N)=O)C1=O [DP0004, H-Dmt-D-Arg-Aba-β-Ala-Bpa-Tyr-NH2] (H-[Dmt][dR][X1][Nva(5-(4-Bn-piperidin-1-yl))]Y-NH2)"
  System tested: "NPFF2R (Homo sapiens)"
  pIC50: "> 7.30"
